measured.target: HRgpA-6H (Porphyromonas gingivalis) (UniProt P28784)
test: SPR Biacore 8K, 25 C; table lists HRgpA-6H as ligand, antibody as analyte
# kon annotations
Reply with just the number (in M⁻¹ s⁻¹).

binder: H14 (antibody, V domains shown) VH: QVQLQESGPGLVKPSETLSLTCTVSGFSLSIYSVHWIRQPPGKGLEWLGMIWGGGSSDYNSALKSRLTISKDTSKNQVSLKLSSVTAADTAMYYCARNGNFYAMDYWGQGTLVTVSS VL: EIVLTQSPGTLSLSPGERATLSCTASSSVSSSFLHWYQQKPGQAPQLWIYSTSNLASGIPDRFSGSGSGTDYTLTISRLEPEDFAVYYCHQYHHSPYIYTFGGGTKLEIK
property.label: kon
unit.descriptor: M⁻¹ s⁻¹
measurement: 52100

binder: H5 (antibody, V domains shown) VH: QVQLQESGPGLVKPSETLSLTCTVSGFSLSIYSVHWIRQPPGKGLEWIGMIWGGGSSDYNSALKSRLTISKDTSKNQVSLKLSSVTAADTAVYYCARNGNFYAMDYWGQGTLVTVSS VL: EIVLTQSPGTLSLSPGERATLSCTASSSVSSSFLHWYQQKPGQAPRLLIYSTSNLASGIPDRFSGSGSGTDFTLTISRLEPEDFAVYYCHQYHHSPYIYTFGGGTKLEIK
property.label: kon
unit.descriptor: M⁻¹ s⁻¹
measurement: 54500

## Task Assign kon to the following record: H8 (antibody, V domains shown) VH: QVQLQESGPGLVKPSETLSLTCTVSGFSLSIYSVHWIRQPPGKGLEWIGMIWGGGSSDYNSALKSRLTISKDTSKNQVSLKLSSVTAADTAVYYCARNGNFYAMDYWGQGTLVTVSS VL: EIVLTQSPGTLSLSPGERATLSCTASSSVSSSFLHWYQQKPGQAPQLWIYSTSNLASGIPARFSGSGSGTDYTLTISRLEPEDFATYYCHQYHHSPYIYTFGGGTKLEIK
## Result 50300

Hello, the source for this data is patent US20240400654A1, in case you need it.
